Documented clearance across a set of compounds
procedure details: Half-lives and pharmacokinetic parameters of polypeptides vs HM-1
test conditions: in vivo
Peptide text beside a SMILES is read from it. * marks the point of attachment. X14 = O=C1C=CC(=O)N1CCOCCOCCOCCOCCOCCCCCCC(=O)*; X37 = O=C1C=CC(=O)N1c1ccc(CCCCCC(=O)*)cc1; X32 = O=C1C=CC(=O)N1CCOCCOCCC(=O)*
# output: bare number, implied unit mL/min/kg

Below: 2 compounds and their reported clearance.
C[C@H](NC(=O)CNC(=O)[C@H](CCCNC(=N)N)NC(=O)CCCCCCOCCOCCOCCOCCOCCN1C(=O)C=CC1=O)C(=O)N[C@@H](CC(=O)O)C(=O)N[C@@H](CCCNC(=N)N)C(=O)N[C@@H](C)C(=O)NCC(=O)NCC(=O)NCC(=O)NCC(=O)N[C@@H](CCCNC(=N)N)C(=O)NCC(=O)N[C@@H](CC(=O)O)C(=O)O [X82] (X14-RGADRAGGGGRGD-OH) | 0.648
C[C@H](NC(=O)CNC(=O)[C@H](CCCNC(=N)N)NC(=O)CCCCCc1ccc(N2C(=O)C=CC2=O)cc1)C(=O)N[C@@H](CC(=O)O)C(=O)N[C@@H](CCCNC(=N)N)C(=O)N[C@@H](C)C(=O)NCC(=O)NCC(=O)NCC(=O)NCC(=O)N[C@@H](CCCNC(=N)N)C(=O)NCC(=O)N[C@@H](CC(=O)O)C(=O)O [X41] (X37-RGADRAGGGGRGD-OH) | 0.628

Alright, here's another compound for you.
Q: I am curious: what clearance value has been reported for C[C@H](NC(=O)CNC(=O)[C@H](CCCNC(=N)N)NC(=O)CCOCCOCCN1C(=O)C=CC1=O)C(=O)N[C@@H](CC(=O)O)C(=O)N[C@@H](CCCNC(=N)N)C(=O)N[C@@H](C)C(=O)NCC(=O)NCC(=O)NCC(=O)NCC(=O)N[C@@H](CCCNC(=N)N)C(=O)NCC(=O)N[C@@H](CC(=O)O)C(=O)O [X57] (X32-RGADRAGGGGRGD-OH) ?
Ans: 0.493

###

Documented CNV Incidence (%) across a set of molecules
Test system: choroidal neovascularization
procedure details: Choroidal neovascularization in rats (laser photocoagulation, FFA)
Format: in vivo
test conditions: day 7 after administration, total light spot number was 186, 0.05 μM in the vitreous chamber once a day for 1 week, BN rats
Peptide text beside a SMILES is read from it. * marks the point of attachment. X68 = O=C1C=CC(=O)N1c1ccccc1CCCCCCCCCCCC(=O)*; X75 = O=C1C=CC(=O)N1c1cccc(CC(=O)*)c1
# output: bare number, implied unit %

C[C@H](NC(=O)CNC(=O)[C@H](CCCNC(=N)N)NC(=O)Cc1cccc(N2C(=O)C=CC2=O)c1)C(=O)N[C@@H](CC(=O)O)C(=O)N[C@@H](CCCNC(=N)N)C(=O)N[C@@H](C)C(=O)NCC(=O)NCC(=O)NCC(=O)NCC(=O)N[C@@H](CCCNC(=N)N)C(=O)NCC(=O)N[C@@H](CC(=O)O)C(=O)O [X25] (X75-RGADRAGGGGRGD-OH) | 47.31

Alright, here's another molecule for you.
Q: I am curious: what CNV Incidence (%) value has been reported for C[C@H](NC(=O)CNC(=O)[C@H](CCCNC(=N)N)NC(=O)CCCCCCCCCCCc1ccccc1N1C(=O)C=CC1=O)C(=O)N[C@@H](CC(=O)O)C(=O)N[C@@H](CCCNC(=N)N)C(=O)N[C@@H](C)C(=O)NCC(=O)NCC(=O)NCC(=O)NCC(=O)N[C@@H](CCCNC(=N)N)C(=O)NCC(=O)N[C@@H](CC(=O)O)C(=O)O [X23] (X68-RGADRAGGGGRGD-OH) ?
Ans: 45.70

###

procedure details: Half-lives and pharmacokinetic parameters of polypeptides vs HM-1
test conditions: in vivo
Peptide text beside a SMILES is read from it. * marks the point of attachment. Hexanoyl(6-maleimido) = O=C1C=CC(=O)N1CCCCCC(=O)*; X52 = O=C1C=CC(=O)N1c1ccccc1CCCCCCCC(=O)*; X34 = O=C1C=CC(=O)N1CCOCCOCCOCCCCCC(=O)*
Documented AUC(0-inf) across a set of molecules
# output: bare number, implied unit ng·h/mL

Below: 2 molecules and their reported AUC(0-inf).
C[C@H](NC(=O)CNC(=O)[C@H](CCCNC(=N)N)NC(=O)CCCCCCCc1ccccc1N1C(=O)C=CC1=O)C(=O)N[C@@H](CC(=O)O)C(=O)N[C@@H](CCCNC(=N)N)C(=O)N[C@@H](C)C(=O)NCC(=O)NCC(=O)NCC(=O)NCC(=O)N[C@@H](CCCNC(=N)N)C(=O)NCC(=O)N[C@@H](CC(=O)O)C(=O)O [X19] (X52-RGADRAGGGGRGD-OH) | 32200
C[C@H](NC(=O)CNC(=O)[C@H](CCCNC(=N)N)NC(=O)CCCCCOCCOCCOCCN1C(=O)C=CC1=O)C(=O)N[C@@H](CC(=O)O)C(=O)N[C@@H](CCCNC(=N)N)C(=O)N[C@@H](C)C(=O)NCC(=O)NCC(=O)NCC(=O)NCC(=O)N[C@@H](CCCNC(=N)N)C(=O)NCC(=O)N[C@@H](CC(=O)O)C(=O)O [X67] (X34-RGADRAGGGGRGD-OH) | 31600

Alright, here's another molecule for you.
Q: I am curious: what AUC(0-inf) value has been reported for C[C@H](NC(=O)[C@H](CCCNC(=N)N)NC(=O)[C@H](CC(=O)O)NC(=O)[C@H](CCC(=O)O)NC(=O)CNC(=O)[C@H](CCCNC(=N)N)NC(=O)CCCCCN1C(=O)C=CC1=O)C(=O)NCC(=O)NCC(=O)NCC(=O)NCC(=O)N[C@@H](CCCNC(=N)N)C(=O)NCC(=O)N[C@@H](CC(=O)O)C(=O)O [P6] ({Hexanoyl(6-maleimido)}-RGEDRAGGGGRGD-OH; C-terminus assumed) ?
Ans: 27700

###

Test system: choroidal neovascularization
procedure details: Choroidal neovascularization in rats (laser photocoagulation, FFA)
Format: in vivo
test conditions: day 28 after administration, total light spot number was 69, 0.05 μM in the vitreous chamber once a day for 1 week, BN rats
Peptide text beside a SMILES is read from it. * marks the point of attachment. X65 = O=C1C=CC(=O)N1c1cccc(CCCCCCCCCCCCC(=O)*)c1; X60 = O=C1C=CC(=O)N1c1ccccc1CCCCCCCCCC(=O)*; X49 = O=C1C=CC(=O)N1c1ccccc1CCCCCC(=O)*
Documented CNV Incidence (%) across a set of molecules
# output: bare number, implied unit %

C[C@H](NC(=O)CNC(=O)[C@H](CCCNC(=N)N)NC(=O)CCCCCc1ccccc1N1C(=O)C=CC1=O)C(=O)N[C@@H](CC(=O)O)C(=O)N[C@@H](CCCNC(=N)N)C(=O)N[C@@H](C)C(=O)NCC(=O)NCC(=O)NCC(=O)NCC(=O)N[C@@H](CCCNC(=N)N)C(=O)NCC(=O)N[C@@H](CC(=O)O)C(=O)O [X17] (X49-RGADRAGGGGRGD-OH) | 40.58
C[C@H](NC(=O)CNC(=O)[C@H](CCCNC(=N)N)NC(=O)CCCCCCCCCc1ccccc1N1C(=O)C=CC1=O)C(=O)N[C@@H](CC(=O)O)C(=O)N[C@@H](CCCNC(=N)N)C(=O)N[C@@H](C)C(=O)NCC(=O)NCC(=O)NCC(=O)NCC(=O)N[C@@H](CCCNC(=N)N)C(=O)NCC(=O)N[C@@H](CC(=O)O)C(=O)O [X21] (X60-RGADRAGGGGRGD-OH) | 40.58

Alright, here's another molecule for you.
Q: Lab note: need CNV Incidence (%) with choroidal neovascularization for entry C[C@H](NC(=O)CNC(=O)[C@H](CCCNC(=N)N)NC(=O)CCCCCCCCCCCCc1cccc(N2C(=O)C=CC2=O)c1)C(=O)N[C@@H](CC(=O)O)C(=O)N[C@@H](CCCNC(=N)N)C(=O)N[C@@H](C)C(=O)NCC(=O)NCC(=O)NCC(=O)NCC(=O)N[C@@H](CCCNC(=N)N)C(=O)NCC(=O)N[C@@H](CC(=O)O)C(=O)O [X36] (X65-RGADRAGGGGRGD-OH) , please look it up.
Ans: 43.48

###

procedure details: Half-lives and pharmacokinetic parameters of polypeptides vs HM-1
test conditions: in vivo; read-out: CL (converted)
Ends that are not written are not given here.
parameter: clearance (mL/min/kg)
# output: bare number, implied unit mL/min/kg

Q: I am curious: what clearance value has been reported for H-RGADRAGGGGRGD [HM-1] ?
Ans: 24.8

###

Test system: human retinal capillary endothelial cells (HRCECs)
procedure details: MTT proliferation inhibition on HRCECs
Format: cell-based
test conditions: 48 h, dose 0.2 μM, mean±SD
Peptide text beside a SMILES is read from it. * marks the point of attachment. X54 = O=C1C=CC(=O)N1c1cccc(CCCCCCC(=O)*)c1; X49 = O=C1C=CC(=O)N1c1ccccc1CCCCCC(=O)*
Documented A570 nm-A630 nm across a set of compounds

C[C@H](NC(=O)CNC(=O)[C@H](CCCNC(=N)N)NC(=O)CCCCCCc1cccc(N2C(=O)C=CC2=O)c1)C(=O)N[C@@H](CC(=O)O)C(=O)N[C@@H](CCCNC(=N)N)C(=O)N[C@@H](C)C(=O)NCC(=O)NCC(=O)NCC(=O)NCC(=O)N[C@@H](CCCNC(=N)N)C(=O)NCC(=O)N[C@@H](CC(=O)O)C(=O)O [X30] (X54-RGADRAGGGGRGD-OH) | 0.4517 ± 0.03378

Alright, here's another compound for you.
Q: Lab note: need A570 nm-A630 nm with human retinal capillary endothelial cells (HRCECs) for entry C[C@H](NC(=O)CNC(=O)[C@H](CCCNC(=N)N)NC(=O)CCCCCc1ccccc1N1C(=O)C=CC1=O)C(=O)N[C@@H](CC(=O)O)C(=O)N[C@@H](CCCNC(=N)N)C(=O)N[C@@H](C)C(=O)NCC(=O)NCC(=O)NCC(=O)NCC(=O)N[C@@H](CCCNC(=N)N)C(=O)NCC(=O)N[C@@H](CC(=O)O)C(=O)O [X17] (X49-RGADRAGGGGRGD-OH) , please look it up.
Ans: 0.4616 ± 0.02184
